Just for reference, ChEMBL document CHEMBL3763046 is where these values come from.

# Tested on: Mus musculus
# ASSAY_SUMMARY: Tmax in mouse at 35 mg/kg, po administered as single dose by LC/MS/MS analysis
# Type: ADME, organism-based
# TEST_PARAMETERS: in vivo
ENDPOINT_LABEL: Tmax (h)
Express it in h; write the number only.

Task item: Tmax lookup needed for COc1cc2c(Oc3ccc(NC(=S)N/N=C/c4ccccc4)cc3F)ccnc2cc1OCCCN1CCCCC1 , thanks.
Reply: 12

Task item: Tmax lookup needed for COc1cc2c(Oc3ccc(NC(=O)N/N=C/c4ccc(F)cc4Cl)cc3F)ccnc2cc1OCCCN1CCCCC1 , thanks.
Reply: 0.75

Continuing:
Task item: Tmax lookup needed for COc1cc2c(Oc3ccc(/C=N/NC(=O)Nc4ccc(F)cc4Br)cc3F)ccnc2cc1OCCCN1CCCCC1 , thanks.
Reply: 7.33

Task item: Tmax lookup needed for C=CCc1cccc(/C=N/NC(=O)Nc2ccc(Oc3ccnc4cc(OCCCN5CCCCC5)c(OC)cc34)c(F)c2)c1O , thanks.
Reply: 6

====

# TARGET_DESC: UniProt:P00533
# Sequence (P00533 whole entry): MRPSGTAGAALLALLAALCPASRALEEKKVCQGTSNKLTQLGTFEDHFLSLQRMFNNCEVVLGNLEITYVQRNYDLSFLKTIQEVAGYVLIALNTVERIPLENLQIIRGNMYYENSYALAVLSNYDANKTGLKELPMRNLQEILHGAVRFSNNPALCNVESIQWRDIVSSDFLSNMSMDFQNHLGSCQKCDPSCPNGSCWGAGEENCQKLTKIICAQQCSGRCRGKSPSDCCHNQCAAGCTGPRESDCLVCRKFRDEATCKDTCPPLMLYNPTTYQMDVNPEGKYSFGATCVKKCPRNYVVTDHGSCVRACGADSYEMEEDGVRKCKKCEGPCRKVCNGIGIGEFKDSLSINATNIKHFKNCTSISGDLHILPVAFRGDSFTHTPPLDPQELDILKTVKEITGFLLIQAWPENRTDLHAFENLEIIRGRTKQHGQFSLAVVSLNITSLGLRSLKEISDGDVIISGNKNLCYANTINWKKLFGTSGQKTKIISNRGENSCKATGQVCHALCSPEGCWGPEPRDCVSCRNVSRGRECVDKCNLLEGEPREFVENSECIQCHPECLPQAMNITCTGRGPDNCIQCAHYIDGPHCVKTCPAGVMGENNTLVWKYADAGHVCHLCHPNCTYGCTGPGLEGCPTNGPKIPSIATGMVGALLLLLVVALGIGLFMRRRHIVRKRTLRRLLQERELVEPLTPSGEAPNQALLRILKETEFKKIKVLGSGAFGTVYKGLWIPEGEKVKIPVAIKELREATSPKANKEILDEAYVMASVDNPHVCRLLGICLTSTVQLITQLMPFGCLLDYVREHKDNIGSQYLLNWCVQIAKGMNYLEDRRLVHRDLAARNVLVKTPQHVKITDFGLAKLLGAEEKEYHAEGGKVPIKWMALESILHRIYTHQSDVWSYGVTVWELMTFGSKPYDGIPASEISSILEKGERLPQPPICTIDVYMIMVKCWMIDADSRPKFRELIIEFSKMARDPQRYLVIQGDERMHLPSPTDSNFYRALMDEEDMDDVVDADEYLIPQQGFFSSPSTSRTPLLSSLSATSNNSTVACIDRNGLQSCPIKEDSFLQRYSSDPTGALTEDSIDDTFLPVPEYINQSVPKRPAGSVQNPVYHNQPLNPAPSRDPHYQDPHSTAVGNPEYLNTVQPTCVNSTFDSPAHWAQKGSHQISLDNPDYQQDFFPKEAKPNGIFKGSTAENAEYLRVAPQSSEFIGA
pIC50: −log10 of the molar value.
ENDPOINT_LABEL: pIC50

Task item: pIC50 lookup needed for C=CCc1cccc(/C=N/NC(=O)Nc2ccc(Oc3ccnc4cc(OCCCN5CCCCC5)c(OC)cc34)c(F)c2)c1O , thanks.
Reply: < 4.00
